- target.or.test.system: NTR1 (Homo sapiens, UniProt P30989)
- Construct: endogenous in cells; host or cells: PC3 cells (ATCC)
- Sequence (P30989 whole entry): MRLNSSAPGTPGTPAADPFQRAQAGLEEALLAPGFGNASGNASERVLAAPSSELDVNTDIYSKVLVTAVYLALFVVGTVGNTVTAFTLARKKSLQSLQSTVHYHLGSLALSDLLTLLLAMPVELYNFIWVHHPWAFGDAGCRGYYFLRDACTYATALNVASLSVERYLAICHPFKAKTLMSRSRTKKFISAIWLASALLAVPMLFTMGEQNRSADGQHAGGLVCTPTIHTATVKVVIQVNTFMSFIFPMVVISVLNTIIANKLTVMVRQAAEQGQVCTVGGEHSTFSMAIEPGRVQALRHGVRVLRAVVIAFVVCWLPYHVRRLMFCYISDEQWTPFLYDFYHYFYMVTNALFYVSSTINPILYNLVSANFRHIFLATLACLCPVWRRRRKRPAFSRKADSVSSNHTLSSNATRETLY
- method.description: ^125I-NT binding to PC3 cells
- assay.context: [agent] at which NT binding was increased by 80%
endpoint.label: EC50 (µM)
Give just the number in µM; leave the unit off.

Query :: So what does the record say about EC50 for COc1ccc(CCCOC(Cn2ccnc2)c2ccc(OC)cc2)cc1 (stereo not shown) ?
Result :: 23

Taken from patent US7507547B2.
